B1: MNAT1 (parent)
chain: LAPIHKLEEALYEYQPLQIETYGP

variants of: B1; test: protein stability index of a GFP-peptide fusion (GPS, HEK-293T) (PSI 1-6); higher = more stable; details: c terminus: a fixed tail appended;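 further: lentivirally expressed fusions sorted by FACS into six bins by GFP to DsRed ratio, PSI derived from sequencing read proportions per bin multiplied by bin number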
Assign class by protein stability index: not lower than 2 means true; lower than 2 means false.

Solved cases (2 shown):
{"Variant Description": "K6L", "Class Name": "true"}
{"Variant Description": "K6P", "Class Name": "true"}

stdin: Has E8K a recorded protein stability index greater than or equal to 2?
stdout: true

stdin: Has L11E a recorded protein stability index greater than or equal to 2?
stdout: true

stdin: Has Q18G a recorded protein stability index greater than or equal to 2?
stdout: false
